- assayProtocol: A549 lung cancer cell viability effects, profiling panel, resazurin fluorescence, 24 h, PK04 Diversity Set (AID 1171); further: test concentration not given here
- conditionNotes: higher = more signal, called active from +8 up or from −8 down
Calls of active or inactive are those of the source.
measuredAttribute: z-score

Here is how some molecules turned out for z-score.
Asked: Requested read-out: z-score. Entry: COc1c(C)cc(-c2nc(-c3ccccc3)c3c(c2C)CO[Si]3(C(C)C)C(C)C)cc1C
Given back: 1.44 (inactive)

Asked: Requested read-out: z-score. Entry: O=C/C=C/c1ccc(-c2ccccc2)cc1
Given back: -0.539 (inactive)

Asked: Requested read-out: z-score. Entry: O=C1C2C=CC(C(O)c3ccccn3)N(Nc3ccc([N+](=O)[O-])cc3)C2C(=O)N1c1ccccc1 (configuration not stated)
Given back: -0.0475 (inactive)

Asked: Requested read-out: z-score. Entry: COC(=O)[C@@]1(Cc2ccc(F)cc2)[C@H]2c3cc(C(=O)N(C)C)n(Cc4ccc(C(F)(F)F)nc4)c3C[C@H]2CN1C(=O)c1ccccc1
Given back: -0.695 (inactive)

Asked: Requested read-out: z-score. Entry: COCCOC(=O)N1C(=O)[C@@]2(c3cc(C#CC4(O)CCCCCC4)ccc31)[C@H](C(N)=O)[C@H]1C(=O)O[C@H](c3ccccc3)[C@H](c3ccccc3)N1[C@@H]2c1ccc(OCCO)cc1
Given back: -1.54 (inactive)

Each of the following entries comes with a recorded value; kindly state z-score for each.
1. CC(C)N1CC=CC23O[C@@H]4/C=C\CCCOC(=O)C4[C@H]2C(=O)N(C(C)CO)[C@@H]3C1=O (some centres not stated)
2. [N-]=[N+]=NCc1ccccc1[C@H]1OC(c2ccc(OCCCO)cc2)=N[C@@]1(Cc1ccccc1N=[N+]=[N-])C(=O)O

Given back:
1. 0.753 (inactive)
2. 0.216 (inactive)

---

- testTarget: NADPH oxidase 5 (Homo sapiens) (UniProt Q96PH1)
- Sequence (Q96PH1 whole entry, looked up): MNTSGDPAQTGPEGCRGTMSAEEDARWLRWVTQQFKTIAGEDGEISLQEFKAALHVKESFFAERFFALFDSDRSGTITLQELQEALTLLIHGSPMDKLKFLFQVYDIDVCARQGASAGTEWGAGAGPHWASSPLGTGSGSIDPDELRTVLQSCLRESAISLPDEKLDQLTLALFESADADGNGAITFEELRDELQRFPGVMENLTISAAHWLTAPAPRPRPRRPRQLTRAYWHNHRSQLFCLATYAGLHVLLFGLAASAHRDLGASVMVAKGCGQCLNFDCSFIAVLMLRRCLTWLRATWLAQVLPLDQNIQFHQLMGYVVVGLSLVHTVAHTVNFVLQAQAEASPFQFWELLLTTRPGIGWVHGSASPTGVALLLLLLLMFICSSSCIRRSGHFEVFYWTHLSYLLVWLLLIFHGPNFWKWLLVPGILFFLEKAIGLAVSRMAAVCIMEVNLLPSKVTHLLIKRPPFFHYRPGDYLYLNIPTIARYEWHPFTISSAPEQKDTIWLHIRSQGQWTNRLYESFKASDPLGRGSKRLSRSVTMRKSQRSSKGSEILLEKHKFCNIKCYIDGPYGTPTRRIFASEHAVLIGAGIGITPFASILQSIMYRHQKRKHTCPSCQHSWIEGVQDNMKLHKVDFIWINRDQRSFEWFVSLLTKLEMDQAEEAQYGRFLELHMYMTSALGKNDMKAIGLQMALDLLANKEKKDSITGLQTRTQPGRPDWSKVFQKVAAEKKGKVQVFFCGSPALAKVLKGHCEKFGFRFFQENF
- assayProtocol: NOX5-dependent H2O2 signal modulators, primary screen, NOX inhibitor project, cell-based, HEK293-NOX5, Amplex Red fluorescence (AID 1161)
- conditionNotes: HEK293-NOX5, ionomycin, 45 min, higher = more signal
measuredAttribute: z-score
Give bare numbers.

Here is how some compounds turned out for z-score.
Asked: Record lookup: for NADPH oxidase 5 (Homo sapiens) (UniProt Q96PH1), what z-score belongs to COCCOC(=O)N1C(=O)[C@@]2(c3cc(C#CCNC(N)=O)ccc31)[C@H](c1ccccc1OCCO)N1[C@H](c3ccccc3)[C@H](c3ccccc3)OC(=O)[C@H]1[C@@H]2C(=O)N1CCCCCCC1 ?
Given back: 0.903

Asked: Record lookup: for NADPH oxidase 5 (Homo sapiens) (UniProt Q96PH1), what z-score belongs to CCOC(=O)C[C@H]1[C@H](OC(=O)c2cc3ccccc3oc2=O)[C@@H](NC(=O)Cc2ccc(OC)cc2)c2cc(OCCCO)ccc2N1C(=O)Cc1ccc(OC)cc1 ?
Given back: 0.991

Asked: Record lookup: for NADPH oxidase 5 (Homo sapiens) (UniProt Q96PH1), what z-score belongs to O=C1NC(=O)C2C1C=CC(C(O)c1ccc(F)cc1)N2Nc1ccc(Cl)cc1Cl (stereo not drawn) ?
Given back: -3.23

Asked: Record lookup: for NADPH oxidase 5 (Homo sapiens) (UniProt Q96PH1), what z-score belongs to COc1ccc(CCNC(=O)[C@@]2(C)c3ccccc3C(=O)N(Cc3ccc(OC(F)(F)F)cc3)[C@H]2c2ccc(CO)cc2)cc1 ?
Given back: -1.23

Asked: Record lookup: for NADPH oxidase 5 (Homo sapiens) (UniProt Q96PH1), what z-score belongs to O=C(NC1CC1)[C@@H]1c2ccccc2C(=O)N(C2CCCCC2)[C@H]1c1ccc(CO)cc1 ?
Given back: 0.536

Each of the following entries comes with a recorded value; kindly state z-score for each.
1. COC(=O)C1=CC(c2ccc(CO)cc2)=CC(C2CC2)N(Cc2cc3c(cc2Br)OCO3)C=C1C(=O)OC (stereo not drawn)
2. C[C@@]1([C@@H](NS(=O)(=O)c2cccc3cccnc23)c2ccc(-c3ccccc3)cc2)C[C@H]1C1CCCCC1

Given back:
1: 0.857; 2: -1.99

---

- assayProtocol: basal RPMI8226 mitochondrial membrane potential changes, profiling panel, cell-based, JC-1 fluorescence, 24 h, 100 nL compound (AID 1169); further: test concentration not given here
- conditionNotes: RPMI8226 myeloma, JC-1 mitochondrial potential fluorescence, higher = more signal
Kindly supply the reported z-score values for the records listed here.
Answers are plain numbers.

Asked: Requested read-out: z-score. Entry: CCOC(=O)C[C@H]1[C@H](OC(=O)c2cc3ccccc3oc2=O)[C@@H](NC(=O)c2ccc(-c3ccccc3)cc2)c2cc(OCCCO)ccc2N1C(=O)Cc1ccc(OC)cc1
Given back: -0.97

Each of the following entries comes with a recorded value; kindly state z-score for each.
1. Cc1ccc(S[C@]2(C(=O)NC3CC3)CC(=O)N(C3Cc4ccccc4C3)[C@@H]2c2ccc(CO)cc2I)cc1
2. C#CCN(C(=O)OC(C)(C)C)[C@H](CO)c1ccccc1
3. CN1C(=O)C2C=CC(C(O)c3ccc([N+](=O)[O-])cc3)N(Nc3ccccc3)C2C1=O (configuration not stated)
4. O=C(c1ccccc1)N1Cc2ccccc2C[C@@]2(N=C(c3ccc(OCCCO)cc3)O[C@H]2c2ccccc2)C1=O
5. C=CC[C@]1(C(=O)NCC(O)CO)N=C(c2ccc(OCCCO)cc2)O[C@H]1c1ccccc1CN=[N+]=[N-] (some centres not stated)
6. COc1ccc([Si](C)(C)[C@@H]2[C@@H](CC(=O)N3CCC[C@H]3CO)O[C@]3(C(=O)N(Cc4cccc(N5C(=O)c6cccc7cccc5c67)c4)c4ccccc43)[C@H]2C)cc1

Given back:
1. -0.502
2. 0.136
3. -0.199
4. -1.25
5. -0.427
6. -1.05

---

- assayProtocol: basal RPMI8226 mitochondrial membrane potential changes, profiling panel, cell-based, JC-1 fluorescence, 24 h, 100 nL compound (AID 1169); further: test concentration not given here
- conditionNotes: RPMI8226 myeloma, JC-1 mitochondrial potential fluorescence, higher = more signal
Assign class by z-score: not lower than -0.7 means condition met; lower than -0.7 means condition not met.

Asked: Does O=C1O[C@@H](c2ccccc2)[C@@H](c2ccccc2)N2[C@@H](c3ccccc3OCCO)[C@]3(C(=O)Nc4ccc(C#CC5(O)CCCCCC5)cc43)[C@@H](C(=O)N3CCCCCCC3)[C@H]12 have a reported z-score of at least -0.7?
Given back: condition not met

Asked: Does COCCOC(=O)N1C(=O)[C@@]2(c3cc(C#CCCO)ccc31)[C@H](c1ccc(O)cc1)N1[C@H](c3ccccc3)[C@H](c3ccccc3)OC(=O)[C@H]1[C@@H]2C(=O)NC[C@H](O)c1ccccc1 have a reported z-score of at least -0.7?
Given back: condition met

Asked: Does CC[C@H]1C2=C3C(CC[C@H]4C(OCc5ccc(F)cc5C(F)(F)F)OC[C@](C)([C@@H]34)N(C(=O)OC(C)(C)C)C2)C(COC(C)=O)C1COC(C)=O (stereo partly specified) have a reported z-score of at least -0.7?
Given back: condition met

Asked: Does COC(=O)[C@H]1N=C(c2ccc(OCCCO)cc2)O[C@H]1c1ccccc1N=[N+]=[N-] have a reported z-score of at least -0.7?
Given back: condition not met

Asked: Does COC(=O)C(CC#Cc1ccc2c(c1)[C@]1(C(=O)N2)[C@H](c2ccccc2OCCO)N2[C@H](c3ccccc3)[C@H](c3ccccc3)OC(=O)[C@H]2[C@@H]1C(=O)N1CCN(c2ncccn2)CC1)C(=O)OC have a reported z-score of at least -0.7?
Given back: condition not met

***
Asked: Does Cc1ccc(S[C@]2(C(=O)NC(C)C)CC(=O)N(Cc3ccccc3)[C@@H]2c2ccc(CO)cc2I)cc1 have a reported z-score of at least -0.7?
Given back: condition met

---

- assayProtocol: binders of probe aFGF10 on microarray, primary screen, stem cell growth factor project, biochemical, small-molecule microarray, fluorescence 635/667 (AID 1071);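 further: score merges 667 nm spot intensity and signal to noise from triplicate slides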
- conditionNotes: higher = more signal
Kindly supply the reported composite z-score values for the records listed here.
Answers are plain numbers.

Asked: Requested read-out: composite z-score. Entry: COC(=O)[C@@]1(Cc2ccc(OC)cc2)[C@@H]2[C@@H](CC(=O)[C@H]2CC(=O)C(=O)N(C)C)CN1C(=O)c1ccccc1
Given back: 1.2

Asked: Requested read-out: composite z-score. Entry: CCOC(=O)C[C@H]1[C@H](OC(=O)c2cc3ccccc3oc2=O)[C@@H](NC(=O)c2ccc(-c3ccccc3)cc2)c2cc(OCCCO)ccc2N1C(=O)Cc1ccc(OC)cc1
Given back: 0.67

Asked: Requested read-out: composite z-score. Entry: COC(=O)[C@@]1(Cc2ccccc2)[C@H]2c3cc(C(=O)N(C)C)n(Cc4nc5ccccc5[nH]4)c3C[C@H]2CN1C(=O)c1ccccc1
Given back: 0.572

Asked: Requested read-out: composite z-score. Entry: CC(C)(C)OC(=O)CC[C@]1(C(N)=O)N=C(c2ccc(OCCCO)cc2)O[C@H]1c1ccccc1N=[N+]=[N-]
Given back: 0.396

Each of the following entries comes with a recorded value; kindly state composite z-score for each.
1. O=C(O)C1=CC[C@H]2C(=O)N(c3ccccc3)C(=O)[C@@H]12
2. O=C1C2C=CC(C(O)C3CC=CCC3)N(Nc3ccc([N+](=O)[O-])cc3)C2C(=O)N1c1ccccc1 (configuration not stated)
3. CN(C)CCCCNC(=O)[C@H]1C[C@H]2C(=O)N[C@@H](CCCCN(C)C)C(=O)N2[C@H]1c1ccc(O)cc1

Given back:
[0.676, 1.14, 0.301]
